Every entry's value here was drawn from paper PMC3545278.

%Stability values, listed per item
method: Plasma stability, 37°C for 20 min, human plasma
Type: in vitro ADME
details: 5% CO2, 20 min, mean ± SEM
Counter-ions that a name gives are not always drawn.
Field format: number, assumed %, no unit text.

compound	%Stability, %
CC(=O)Nc1ccc(O)cc1 [Acetaminophen]	98.6
C[C@]12CCC(=O)C=C1CC[C@@H]1[C@@H]2[C@@H](O)C[C@@]2(C)[C@H]1CC[C@]2(O)C(=O)CO [Hydrocortisone]	98.5
COc1ccc2c(c1)c(CC(=O)O)c(C)n2C(=O)c1ccc(Cl)cc1 [Indomethacin]	111.0
CC(C)NCC(O)COc1cccc2ccccc12 (stereo not drawn) [Propranolol HCl]	98.7
CC(=O)O[C@H]1C(=O)[C@@]2(C)[C@H]([C@H](OC(=O)c3ccccc3)[C@]3(O)C[C@H](OC(=O)[C@H](O)[C@@H](NC(=O)c4ccccc4)c4ccccc4)C(C)=C1C3(C)C)[C@]1(OC(C)=O)CO[C@@H]1C[C@@H]2O [Paclitaxel]	104.8
CC(C)(C)NCC(O)c1cc(O)cc(O)c1 (stereo not drawn) [Terbutaline]	106.5
CC(=O)CC(c1ccccc1)c1c(O)c2ccccc2oc1=O (stereo not drawn) [Warfarin]	100.4
Cc1nnc(NS(=O)(=O)c2ccc(N)cc2)s1 [Sulfamethiazole]	101.9
O=C(CCCCCCC(=O)Nc1ccccc1)NO [Vorinostat]	101.1
CCCCNC(=O)NS(=O)(=O)c1ccc(C)cc1 [Tolbutamide]	102.2

Quick one: give measured %Stability for CC[C@H](C)C(=O)O[C@H]1C[C@@H](C)C=C2C=C[C@H](C)[C@H](CC[C@@H]3C[C@@H](O)CC(=O)O3)[C@H]21 [Lovastatin]
96.2

Consider the compound CC[C@]1(O)C[C@@H]2CN(CCc3c([nH]c4ccccc34)[C@@](C(=O)OC)(c3cc4c(cc3OC)N(C)[C@H]3[C@@](O)(C(=O)OC)[C@H](OC(C)=O)[C@]5(CC)C=CCN6CC[C@]43[C@@H]65)C2)C1 [Vinblastine] . State its measured %Stability.
97.5
